target: HCV E1E2 complex, isolate H77 (genotype 1a) (hepatitis C virus genotype 1a, isolate …, UniProt P27958 192-383; P27958 384-746); test: Fab screen after panning on E1E2 (H77)
result type: binding result

Fab E2 (antibody clone, not the glycoprotein) (Fab, V domains shown) VH: VGLLEQSGAELKKPGSSVKVSCKPSDGTFRAYTLSWVRQAPGQTLEWLGRIMPTVGITNYAQKFQGRVTISADMSTATAYMQLSSLRPDDTAIYYCAKGPYVGLGEGFSEWGQGTLVTVSS VL: ELTQSPLSLPVTLGQPASISCRSSQSLVYSDGNTYLIWFQQRPGQSPRRLIYNVSNRDSGVPDRFSGSGSGTDFTLKISRVEAEDLGVYYCMQGAHWPPTFGQGTRLEIKG    binds
Fab E3 (Fab, V domains shown) VH: VGLLEQSGAELKKPGSSVKVSCKPSDGTFRAYTLSWVRQAPGQALEWMGRIMPTVGITNYARKFQGRVTISADMSTATAYMELSSLRSDDTAIYYCAKGPYVGLGEGFSEWGQGTLVTVSS VL: ELVLTQSPLSLPVTLGQPASISCRSTQSLVYSDGNTYLNWFHQRPGQPPRRLIYKVSNRDSGVPERFSGSGSGTDFALKISRVEADDVGIYYCMQGAHWPPTFGGGTKVEISR    binds
Fab S2 (Fab, V domains shown) VH: VQLLEQSGAEVKKPGASVKVSCTASGYIFTSFGISWVRQAPGQGLEWMGRIDTYNGKTNYAQKLQGRVTMTTDTYTSTAYMELRSLTSDDTAVYYCARDDCRSSTCYLAQHNWQAYYHDSWGQGTLVTVSS VL: ELTQSPATLSLSPGERATLSCRASQSVSSRFLAWYQQKPGQAPRLLIYGASSRATGIPDRFSGSGSGTDFTLTISRLEPEDFAVYYCQQYGSSPQTFGQGTKVEIKR    binds
